# System under test: Na^+ /H^+ exchanger (Oryctolagus cuniculus)
# Construct: endogenous in cells; host or cells: rabbit erythrocytes (whole blood of cholesterol-fed White New Zealand rabbits)
# Sequence (P23791 whole entry): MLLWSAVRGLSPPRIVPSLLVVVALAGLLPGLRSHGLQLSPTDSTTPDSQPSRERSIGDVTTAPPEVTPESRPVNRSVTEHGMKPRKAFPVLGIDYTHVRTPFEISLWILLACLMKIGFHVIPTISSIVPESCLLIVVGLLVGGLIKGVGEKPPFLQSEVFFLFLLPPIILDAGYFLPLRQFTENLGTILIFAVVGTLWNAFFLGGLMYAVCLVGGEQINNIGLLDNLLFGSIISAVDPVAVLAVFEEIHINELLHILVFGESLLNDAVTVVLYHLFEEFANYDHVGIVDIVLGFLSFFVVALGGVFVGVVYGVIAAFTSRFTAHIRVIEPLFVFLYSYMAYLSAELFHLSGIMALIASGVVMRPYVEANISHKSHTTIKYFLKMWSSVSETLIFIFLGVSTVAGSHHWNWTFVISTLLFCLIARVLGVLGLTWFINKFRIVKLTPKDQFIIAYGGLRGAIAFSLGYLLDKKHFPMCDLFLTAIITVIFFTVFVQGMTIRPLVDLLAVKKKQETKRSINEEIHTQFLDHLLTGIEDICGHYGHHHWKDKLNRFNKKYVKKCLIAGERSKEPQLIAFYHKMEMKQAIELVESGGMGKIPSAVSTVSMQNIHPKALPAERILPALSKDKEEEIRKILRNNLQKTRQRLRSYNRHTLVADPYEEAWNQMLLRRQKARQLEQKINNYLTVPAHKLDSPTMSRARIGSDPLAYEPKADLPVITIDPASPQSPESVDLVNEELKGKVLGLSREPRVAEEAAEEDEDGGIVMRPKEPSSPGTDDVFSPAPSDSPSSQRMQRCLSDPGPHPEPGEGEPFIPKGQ
# Measurement notes: Inhibition of the Na+/H+ exchanger of rabbit erythrocytes (amiloride-sensitive sodium influx, flame photometry)
# Assay type: cell-based, rabbit (White New Zealand)
# Settings: 37° C., pH 7.4, hyperosmolar salt-sucrose medium
Outcome measure: IC50 (nM)

P. CC(C)c1ccc(C(=O)N=C(N)N)cc1S(=O)(=O)C(F)(F)F
Q. NC(N)=NC(=O)c1ccc(Oc2ccc(F)cc2)c(S(=O)(=O)C(F)(F)F)c1
Identify the item whose IC50 is the smaller number: P or Q Output the label that corresponds to your choice.
P
(P: 70 nM, Q: 200 nM)
